Reference source: patent US7960427B2

- System: HBV DNA
- assayComment: In vitro anti-HBV activity: replication of HBV DNA in 2.2.15 cells (dot hybridization)
- Assay type: cell-based, Hepatitis B virus (HBV)
- recordedConditions: selectivity index
Structures can show the parent of a compound that is named as a salt.
reportedEndpoint: DNA replication SI
// response body must contain only the number

QUERY: Would you mind telling me what DNA replication SI value was observed for CCOC(=O)c1c(CSc2ccc(F)cc2)n(C2CC2)c2cc(Br)c(O)c(CN3CCN(C)CC3)c12 [Example 19, dihydrochloride] ?
RESULT: 2.85

QUERY: CCOC(=O)c1c(C[S+]([O-])c2ccc(F)cc2)n(C2CC2)c2cc(Br)c(O)c(CNC(=N)N)c12 (stereo not shown) , same question.
RESULT: 3.63

QUERY: Now the same for CCOC(=O)c1c(C[S+]([O-])c2ccccc2OC)n(C)c2cc(Br)c(O)c(Cn3ccnc3C)c12.Cl (stereo not shown)
RESULT: 22.3

QUERY: Next record, please: CCOC(=O)c1c(CS(=O)(=O)c2ccccc2)n(C)c2cc(Br)c(O)c(Cn3ccnc3C)c12
RESULT: 7.09

----------
- Tested on: HBV DNA
- assayComment: In vitro anti-HBV activity: replication of HBV DNA in 2.2.15 cells (dot hybridization)
- Assay type: cell-based, Hepatitis B virus (HBV)
- recordedConditions: selectivity index
Counter-ions that a name gives are not always drawn.
reportedEndpoint: DNA replication SI
Answer as a number with no unit attached.

QUERY: Fill blank: measured DNA replication SI of the compound CCOC(=O)c1c(C[S+]([O-])Cc2ccc(F)cc2)n(C)c2cc(Br)c(O)c(CN3CCOCC3)c12.Cl (stereo not shown) is ____.
RESULT: 32.48

QUERY: Repeat for the following compound: CCOC(=O)c1c(CS(=O)(=O)c2cccc(C(F)(F)F)c2)n(C2CC2)c2cc(Br)c(O)c(CN3CCCC3)c12
RESULT: 5.58

QUERY: Again, but for CCOC(=O)c1c(C[S+]([O-])c2c(Cl)cccc2Cl)n(C2CC2)c2cc(Br)c(O)c(Cn3ccnc3C)c12 (stereo not shown)
RESULT: 4.51

QUERY: Now this one: CCOC(=O)c1c(C[S+]([O-])Cc2cscn2)n(C2CC2)c2cc(Br)c(O)c(CN(C)C)c12 (stereo not shown) [Example 52, dihydrochloride]
RESULT: 18.27

----------
I'd appreciate it if you could supply inhibition ratio at 0.5 ug/ml values for the items below.
- systemName: HIV-1 protease (Human immunodeficiency virus type 1 group M subtype B, UniProt P04585)
- Construct: The genetically engineered target enzyme (HIV-1 protease, preserved at −85° C.)
- assayComment: Anti-HIV-1 protease activity (fluorescence labeled substrate)
- Format: biochemical
- recordedConditions: sample concentration 0.5 ug/ml
Where a name gives a salt, the structure may show the parent alone.
The response must contain the number and no unit.

QUERY: Give the measured inhibition ratio at 0.5 ug/ml of CCOC(=O)c1c(C[S+]([O-])c2ccccc2C)n(C)c2cc(Br)c(O)c(CN3CCOCC3)c12 (centres unmarked) .
RESULT: 6.4

QUERY: Here is the next compound: CCOC(=O)c1c(C[S+]([O-])c2ccc(F)c(F)c2)n(C2CC2)c2cc(Br)c(O)c(CN3CCN(C)CC3)c12 (centres unmarked) [Example 67, dihydrochloride]
RESULT: 3.2

QUERY: Here is the next compound: CCOC(=O)c1c(C[S+]([O-])c2ccccc2)n(C)c2cc(Br)c(O)c(Cn3ccnc3C)c12 (centres unmarked)
RESULT: 4.6

QUERY: Try this compound too: CCOC(=O)c1c(CSc2ccc(F)cc2)n(C)c2cc(Br)c(O)c(CN3CCN(C)CC3)c12 [Example 17, dihydrochloride]
RESULT: −6.1

QUERY: Okay, and CCOC(=O)c1c(C[S+]([O-])c2ccc(F)cc2)n(C2CC2)c2cc(Br)c(O)c(CNC(=N)N)c12 (centres unmarked) ?
RESULT: 3.2

----------
- systemName: HIV-1 protease (Human immunodeficiency virus type 1 group M subtype B)
Structures can show the parent of a compound that is named as a salt.
Exercise: state measured pIC50 for each of the compounds provided.
Bear in mind: pIC50 is minus log10 of a mol/L concentration; give just that figure.

QUERY: Entry under review: CCOC(=O)c1c(C[S+]([O-])c2ccc(F)cc2)n(C2CC2)c2cc(Br)c(O)c(Cn3ccnc3C)c12 (stereo not shown) . Reported pIC50?
RESULT: 3.96

QUERY: Another compound: CCOC(=O)c1c(CS(=O)(=O)c2cccc(OC)c2)n(C)c2cc(Br)c(O)c(CN(C)C)c12
RESULT: 4.31

QUERY: Could you do the same for CCOC(=O)c1c(CSc2ccc(F)cc2)n(C2CC2)c2cc(Br)c(O)c(CN3CCN(C)CC3)c12 [Example 19, dihydrochloride] , please?
RESULT: 3.63

QUERY: Next record, please: CCOC(=O)c1c(C[S+]([O-])c2ccccc2)n(C)c2cc(Br)c(O)c(Cn3ccnc3C)c12 (stereo not shown)
RESULT: 3.53

----------
Answer each item with its documented inhibition ratio at 2.0 ug/ml.
- systemName: HIV-1 protease (Human immunodeficiency virus type 1 group M subtype B, UniProt P04585)
- Construct: The genetically engineered target enzyme (HIV-1 protease, preserved at −85° C.)
- assayComment: Anti-HIV-1 protease activity (fluorescence labeled substrate)
- Type: biochemical
- recordedConditions: sample concentration 2.0 ug/ml
- Protocol: HIV-1 protease can cut the fluorescence labeled substrate under optimal condition and reaction system, so the activity of enzyme is determined by the fluorescence in the product of enzymatic reaction. […] The samples and the reference drug Indinavir ([…].) were dissolved in DMSO or redistilled water for appropriate concentration. Each was diluted 5-fold and then added into the buffer containing fluorescence labeled substrate (MP Co.). […]
Counter-ions that a name gives are not always drawn.
# answer = number (no unit)

QUERY: May I ask what inhibition ratio at 2.0 ug/ml has been recorded for CCOC(=O)c1c(CSc2ccc(F)cc2)n(C2CC2)c2cc(Br)c(O)c(CN3CCN(C)CC3)c12 [Example 19, dihydrochloride] ?
RESULT: −8.9

QUERY: What would you report for CCOC(=O)c1c(C[S+]([O-])c2ccccc2C)n(C)c2cc(Br)c(O)c(CN3CCOCC3)c12 (stereo not drawn) ?
RESULT: 9.2

QUERY: Record: CCOC(=O)c1c(C[S+]([O-])c2ccccc2)n(C)c2cc(Br)c(O)c(Cn3ccnc3)c12 (stereo not drawn)
RESULT: −2.4

QUERY: Would you kindly repeat that for CCOC(=O)c1c(C[S+]([O-])c2ccc(F)c(F)c2)n(C2CC2)c2cc(Br)c(O)c(CN3CCN(C)CC3)c12 (stereo not drawn) [Example 67, dihydrochloride] ?
RESULT: 10.5

QUERY: // same read-out, input: CCOC(=O)c1c(CS(=O)(=O)c2ccc(F)c(F)c2)n(C2CC2)c2cc(Br)c(O)c(Cn3ccnc3)c12
RESULT: 11.7

QUERY: And CCOC(=O)c1c(C[S+]([O-])c2ccc(F)cc2)n(C)c2cc(Br)c(O)c(CNC(=N)N)c12 (stereo not drawn) ?
RESULT: 14.7

QUERY: Then CCOC(=O)c1c(C[S+]([O-])c2ccc(F)cc2)n(C2CC2)c2cc(Br)c(O)c(CNC(=N)N)c12 (stereo not drawn) ?
RESULT: 13.2

QUERY: Do the same for CCOC(=O)c1c(CS(=O)(=O)c2cccc(OC)c2)n(C)c2cc(Br)c(O)c(CN(C)C)c12 please
RESULT: 6.7

QUERY: Also need CCOC(=O)c1c(C[S+]([O-])c2ccccc2)n(C)c2cc(Br)c(O)c(Cn3ccnc3C)c12 (stereo not drawn) , thanks.
RESULT: 14.6

QUERY: Moving on to CCOC(=O)c1c(CSc2ccc(F)cc2)n(C)c2cc(Br)c(O)c(CN3CCN(C)CC3)c12 [Example 17, dihydrochloride]
RESULT: −8.3

QUERY: Similarly, CCOC(=O)c1c(C[S+]([O-])c2ccc(F)cc2)n(C)c2cc(Br)c(O)c(CN3CCOCC3)c12 (stereo not drawn) ?
RESULT: 11.6

QUERY: Request: CCOC(=O)c1c(C[S+]([O-])c2ccc(F)cc2)n(C2CC2)c2cc(Br)c(O)c(Cn3ccnc3C)c12 (stereo not drawn)
RESULT: −2.3

----------
- System: 2.2.15 cells
- assayComment: Cytotoxicity (TC50) in 2.2.15 cells
- Assay type: cell-based
Structures can show the parent of a compound that is named as a salt.
Hi there, I'd appreciate the recorded TC50 for every entry that follows.
Write the answer as a number in µg/mL, unit excluded.

QUERY: Form field: reported TC50 of CCOC(=O)c1c(C[S+]([O-])c2ccc(C(F)(F)F)cc2)n(C2CC2)c2cc(Br)c(O)c(CN(C)C)c12 (centres unmarked)
RESULT: 17.12

QUERY: Similarly, CCOC(=O)c1c(C[S+]([O-])c2ccccc2OC)n(C)c2cc(Br)c(O)c(CNC(=N)N)c12.Cl (centres unmarked) ?
RESULT: 64.15

QUERY: Now the compound CCOC(=O)c1c(C[S+]([O-])c2ccccc2)n(C)c2cc(Br)c(O)c(Cn3ccnc3)c12 (centres unmarked)
RESULT: 8.12

QUERY: Now give it for CCOC(=O)c1c(CS(=O)(=O)Cc2ccco2)n(C2CC2)c2ccc(O)c(CN3CCCC3)c12 too.
RESULT: 14.26

QUERY: Also need CCOC(=O)c1c(C[S+]([O-])c2ccccc2OC)n(C)c2cc(Br)c(O)c(Cn3ccnc3C)c12.Cl (centres unmarked) , thanks.
RESULT: 53.42

QUERY: Input CCOC(=O)c1c(CS(=O)(=O)Cc2ccco2)n(C2CC2)c2cc(Br)c(O)c(Cn3ccnc3)c12
RESULT: 128.30

QUERY: Further, for CCOC(=O)c1c(CS(=O)(=O)c2cccc(OC)c2)n(C)c2ccc(O)c(CN3CCCC3)c12 [Example 72, hydrochloride] ?
RESULT: 106.83

QUERY: Can you check CCOC(=O)c1c(CS(=O)(=O)c2ccc(C(F)(F)F)cc2)n(C)c2cc(Br)c(O)c(CN3CCCC3)c12 next?
RESULT: 14.25

QUERY: Also need CCOC(=O)c1c(C[S+]([O-])c2ccc(F)c(F)c2)n(C2CC2)c2cc(Br)c(O)c(CN3CCN(C)CC3)c12 (centres unmarked) [Example 67, dihydrochloride] , thanks.
RESULT: 34.35

QUERY: How about this compound: CCOC(=O)c1c(C[S+]([O-])Cc2ccc(F)cc2)n(C)c2cc(Br)c(O)c(CN3CCOCC3)c12.Cl (centres unmarked)
RESULT: 24.69

QUERY: Again, but for CCOC(=O)c1c(CSc2nc3ccccc3[nH]2)n(C)c2cc(Br)c(O)c(CNC(=N)N)c12
RESULT: 258.69

QUERY: Also CCOC(=O)c1c(CSc2ccc(F)cc2)n(C)c2cc(Br)c(O)c(CN3CCN(C)CC3)c12 [Example 17, dihydrochloride] , if possible.
RESULT: 62.50

QUERY: What do we get for CCOC(=O)c1c(CS(=O)(=O)Cc2ccccc2)n(C)c2cc(Br)c(O)c(Cn3ccnc3C)c12 ?
RESULT: 35.61

QUERY: Item: CCOC(=O)c1c(C[S+]([O-])Cc2ccc(F)cc2)n(C)c2cc(Br)c(O)c(CN3CCCCC3)c12 (centres unmarked)
RESULT: 7.13
